# assayed_system: UniProt:P51449
# test_protocol: RORγ Gal4 Reporter Gene Assay in 293T cells (firefly and renilla luciferase)
# Format: cell-based, human
# condition_label: third value of the cell; Gal4 reporter gene assay in 293T cells, renilla normalised luciferase
endpoint_label: pIC50 (REN)

Cc1c(C(=O)N[C@H]2C[C@H](C(=O)O)C2)cc(-c2cc(C(C)(C)C)nc(C3(C)CC3)c2)n1CC1CCCCC1 | 7.4
Cc1c(C(=O)NC2CCOCC2)cc(-c2ccc(S(=O)(=O)NC(C)(C)C)c(C(F)(F)F)c2)n1CC1CCCC1 | 7.5
Cc1c(C(=O)NC2CCOCC2)cc(-c2ccc(S(=O)(=O)NC(C)(C)CO)c(C(F)(F)F)c2)n1CC1CCCCC1 | 6.9
Cc1c(C(=O)NCC(C)(C)O)cc(-c2ccc(S(=O)(=O)NC(C)(C)C)c3ccccc23)n1CC1CCC(F)CC1 (stereo not shown) | 7.3
Cc1c(C(=O)NC2CCOCC2)cc(C2=NN(S(=O)(=O)c3ccccc3)C3(CCCCC3)C2)n1CC1CCCCC1 | 6.4
Cc1c(C(=O)NC2CCOCC2)cc(-c2cc(F)c(S(=O)(=O)NC(C)(C)C)c(C(F)(F)F)c2)n1CC1CCCCC1 | 7.3
CCNC(=O)c1cc(-c2ccc(S(=O)(=O)NC(C)(C)C)c(C(C)(C)C)c2)n(CC2CCCCC2)c1C | 6.9
Cc1c(C(=O)NCC(C)(C)NC(=O)CC2SC(=O)NC2=O)cc(-c2cc(C(C)(C)C)c3c(c2)C2(CCO3)CC2)n1CC1CCCCC1 (stereo not shown) | 6.3
Cc1cc(C(C)(C)C)cc(-c2cc(C(=O)NCC(C)(C)O)c(C)n2CC2CCCCC2)c1OC(F)F | 6.4
